Target: STE20-like serine/threonine-protein kinase (Homo sapiens)
Assay: SLK binders by thermal stabilization, biophysical, purified human kinase, DSF (AID 514)
Details: differential scanning fluorimetry Tm shift, at 10 µM, protein 2 µM, buffer 10 mM HEPES, pH 7.5, NaCl 150 mM, stronger effect = higher value
measured endpoint: Tm shift

Problem: System STE20-like serine/threonine-protein kinase (Homo sapiens). Read-out Tm shift. Item Nc1ccc(-c2cnn3ccc(Nc4cccc(Cl)c4)nc23)cc1 . Report value.
Result: 4 C

Problem: System STE20-like serine/threonine-protein kinase (Homo sapiens). Read-out Tm shift. Item OCC(O)CCO/N=C1/C(c2c(O)[nH]c3ccccc23)=Nc2ccccc21 (stereo unspecified) . Report value.
Result: 4.7 C

Problem: System STE20-like serine/threonine-protein kinase (Homo sapiens). Read-out Tm shift. Item Nc1nc(Nc2ccc(S(N)(=O)=O)cc2)nn1C(=S)Nc1c(F)cccc1F . Report value.
Result: 12.1 C

Problem: System STE20-like serine/threonine-protein kinase (Homo sapiens). Read-out Tm shift. Item COc1cncc(-c2cnc3ccc(N[C@H](CO)C(C)C)nn23)c1 . Report value.
Result: 3.1 C

Problem: System STE20-like serine/threonine-protein kinase (Homo sapiens). Read-out Tm shift. Item Clc1cccc(Nc2ccn3ncc(-c4ccc5c(c4)OCO5)c3n2)c1 . Report value.
Result: 3.7 C

Problem: System STE20-like serine/threonine-protein kinase (Homo sapiens). Read-out Tm shift. Item Nc1cccc(-c2cnn3ccc(Nc4cccc(Cl)c4)nc23)c1 . Report value.
Result: 3.7 C

###

Molecular target: STE20-like serine/threonine-protein kinase (Homo sapiens)
Experiment: SLK binders by thermal stabilization, biophysical, purified human kinase, DSF (AID 514)
Settings: differential scanning fluorimetry Tm shift, at 10 µM, protein 2 µM, buffer 10 mM HEPES, pH 7.5, NaCl 150 mM, stronger effect = higher value
measured endpoint: Tm shift

Problem: Indicate the recorded Tm shift value for this compound: O=C1NCc2c1c1c3ccccc3[nH]c1c1[nH]c3ccccc3c21
Result: 5.1 C

Problem: Indicate the recorded Tm shift value for this compound: COc1ccc(Cl)cc1NC(=O)Nc1cc(C)nc2ccccc12
Result: 3.4 C

Problem: Indicate the recorded Tm shift value for this compound: Clc1cccc(-c2cnc3ccc(NC4CCOCC4)nn23)c1
Result: 3.9 C

Problem: Indicate the recorded Tm shift value for this compound: O=C1Nc2ccc(Br)cc2/C1=C/c1cc2c([nH]1)CCCC2
Result: 3.6 C

Problem: Indicate the recorded Tm shift value for this compound: O=Nc1c(-c2c(O)[nH]c3ccccc23)[nH]c2ccccc12
Result: 3.9 C

Problem: Indicate the recorded Tm shift value for this compound: Nc1nc(Nc2cccc(Cl)c2)sc1C(=O)c1ccc(F)cc1
Result: 3.7 C

Problem: Indicate the recorded Tm shift value for this compound: COc1ccccc1-c1cnc2[nH]c(=O)n(C3CCCC3)c2n1
Result: 3.3 C

Problem: Indicate the recorded Tm shift value for this compound: Cn1c(O)c(C2=c3ccccc3=NC2=O)[nH]c1=S
Result: 3.4 C

Problem: Indicate the recorded Tm shift value for this compound: CC(O)(O)C1(O)C[C@@H]2O[C@@]1(C)n1c3ccccc3c3c4c(c5c6ccccc6n2c5c31)C(=O)NC4 (stereo not given in full)
Result: 6.3 C

Problem: Indicate the recorded Tm shift value for this compound: COc1ccc(Nc2nc(N)c(C(=O)c3ccc(Cl)cc3)s2)cc1
Result: 4.4 C

Problem: Indicate the recorded Tm shift value for this compound: CCCNC(=O)Nc1ccc(Oc2ncnc3cc(OC)c(OC)cc23)cc1Cl
Result: 5.8 C

Problem: Indicate the recorded Tm shift value for this compound: CC(C)[C@@H](CO)Nc1ccc2ncc(-c3cccc(OC(F)(F)F)c3)n2n1
Result: 4.3 C

Problem: Indicate the recorded Tm shift value for this compound: COc1ccc2c(c1)/C(=C/c1cnc[nH]1)C(=O)N2
Result: 3.3 C

Problem: Indicate the recorded Tm shift value for this compound: COc1ccc(Nc2nc(N)c(C(=O)c3ccc(OC)cc3)s2)cc1
Result: 3.9 C

Problem: Indicate the recorded Tm shift value for this compound: O=Nc1c(-c2c(O)[nH]c3ccc(I)cc23)[nH]c2ccccc12
Result: 3.7 C

Where do the numbers come from? From PubChem BioAssay AID514.
